Kindly supply the reported MIC values for the records listed here.
- Tested on: Pseudomonas aeruginosa ATCC 27853, CCM 3955
- assay: Antibacterial microdilution broth method, P. aeruginosa
- Format: cell-based
- conditions: Pseudomonas aeruginosa; P. aeruginosa; 24 h incubation; read-out: MIC PA 24 h

Example compounds with recorded MIC:
1. O=C(O)c1ccc(N=Cc2ccc([N+](=O)[O-])o2)cc1
500 µM
2. O=C(O)c1ccc(N=Cc2cc([N+](=O)[O-])ccc2O)cc1
> 500 µM
3. O=C(O)c1ccc(N=Cc2c(O)cccc2Cl)cc1
> 500 µM
4. O=C(O)c1ccc(N=Cc2cc(Cl)cc(Br)c2O)cc1
> 500 µM
5. O=C(O)c1ccc(N=Cc2cc(O)ccc2O)cc1
500 µM
6. O=C(O)c1ccc(N=Cc2ccc(O)cc2)cc1
> 500 µM

For every listed record, write down its MIC.
1. O=C(O)c1ccc(N=Cc2cc(F)ccc2O)cc1
2. O=C(O)c1ccc(N=Cc2ccccc2O)cc1
3. COc1ccccc1C=Nc1ccc(C(=O)O)cc1

result:
> 500 µM
> 500 µM
> 500 µM

For every listed record, write down its MIC.
1. O=C(O)c1ccc(N=Cc2cc(Cl)cc(I)c2O)cc1
2. O=C(O)c1ccc(N=Cc2cc(Cl)ccc2O)cc1
3. Cc1ccc(O)c(C=Nc2ccc(C(=O)O)cc2)c1

result:
1: > 500 µM; 2: > 500 µM; 3: > 500 µM
